test: NCI Yeast Anticancer Drug Screen. Data for the rad50 strain (AID 155);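 also: 0% = growth of vehicle-only cultures of the same strain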; conditions: S. cerevisiae rad50 strain growth inhibition; at 50.0 µM unless noted
Compounds without any hit were thinned out: in the full panel of roughly 79,000, 15% have a hit. Calls of active or inactive are those of the source. Rule as the data show it: active = growth inhibition above about 70%; inactive = the rest.
Classes used: class 1 for active, class 0 for inactive

[[record]]
compound = "O=C1C2CCC2C(=O)N1c1ccc2ccccc2c1 (stereo unspecified)"
category = "class 0"

[[record]]
compound = "C=CSS/C(=C/N(C=O)Cc1cnc(C)nc1N)CCO"
category = "class 0"

[[record]]
compound = "Cc1cccc(C)c1NS(=O)(=O)c1ccc(Cl)cc1"
category = "class 1"

[[record]]
compound = "CN1C(=O)n2c(nc3ccccc32)C(Cl)(Cl)C1=O"
category = "class 0"

[[record]]
compound = "Nc1c(Cl)ccc2c(Cl)ccnc12"
category = "class 0"

[[record]]
compound = "CC(=O)C12C[C@](C#N)(N3CCCCCC3)C1C=Cc1ccccc12 (stereo partly specified)"
category = "class 0"

[[record]]
compound = "CS(=O)(=O)OCCN(CCOS(C)(=O)=O)c1cc(C(N)=O)c([N+](=O)[O-])cc1[N+](=O)[O-]"
category = "class 0"

[[record]]
compound = "Cc1ccc(C(=O)/C=C/c2cccc3ccccc23)cc1"
category = "class 0"

[[record]]
compound = "O=[N+]([O-])C(c1ccccc1)C(c1ccccc1)C(c1ccccc1)[N+](=O)[O-] (stereo unspecified)"
category = "class 0"

[[record]]
compound = "O=C(Nc1cc(Cl)c(Cl)cc1Cl)C(=O)C(C(=O)c1ccccc1)C1OC(=O)c2ccccc21 (stereo unspecified)"
category = "class 0"

[[record]]
compound = "CC1=Cc2cccc(C)c2C(=O)C1=O"
category = "class 1"


From: PubChem BioAssay (NCI)
